system: 874868-142-R-J2-PDC complex spheroids, growth % test/control; assay: Anticancer human tumor 874868-142-R-J2-PDC patient-derived head and neck squamous carcinoma cell line growth inhibition [CLK]; details: second compound 0.316 µM; first compound 0.1 µM; stronger effect = lower value
Field 'label' (enum: met / not met). Set to met when viability, T/C is strictly under 50%; else not met.

Take a look at these entries with their results.
- C=CC(=O)N1CCN(c2nc(=O)n(-c3c(C)ccnc3C(C)C)c3nc(-c4c(O)cccc4F)c(F)cc23)C(C)C1 (stereo not given) + CNC(=O)c1ccc(Nc2nc(OC3CCCC3)c3c(-c4ccc5nc(C)oc5c4)c[nH]c3n2)c(OC)c1: not met
- O=C(c1cc(Cc2n[nH]c(=O)c3ccccc23)ccc1F)N1CCN(C(=O)C2CC2)CC1 + CNC(=O)c1ccc(Nc2nc(OC3CCCC3)c3c(-c4ccc5nc(C)oc5c4)c[nH]c3n2)c(OC)c1: not met
- COc1ccc([C@@H](O)c2cc(-c3ncnc4cc(N5CCOCC5)ccc34)c(F)cc2Cl)nn1 + CN1CCN(c2cc(C(=O)Nc3cc4cc(-c5cnn(C)c5)ccc4cn3)ccn2)CC1: met
- CC1(C)CCC(CN2CCN(c3ccc(C(=O)NS(=O)(=O)c4ccc(NCC5CCOCC5)c([N+](=O)[O-])c4)c(Oc4cnc5[nH]ccc5c4)c3)CC2)=C(c2ccc(Cl)cc2)C1 + CNC(=O)c1ccc(Nc2nc(OC3CCCC3)c3c(-c4ccc5nc(C)oc5c4)c[nH]c3n2)c(OC)c1: not met
- CC(CO)NC(=O)c1cc(-c2ccc(Cl)cc2)nn(-c2cnn(C)c2)c1=O (stereo not given) + CN1CCN(c2cc(C(=O)Nc3cc4cc(-c5cnn(C)c5)ccc4cn3)ccn2)CC1: met
- COc1ccc([C@@H](O)c2cc(-c3ncnc4cc(N5CCOCC5)ccc34)c(F)cc2Cl)nn1 + CNC(=O)c1ccc(Nc2nc(OC3CCCC3)c3c(-c4ccc5nc(C)oc5c4)c[nH]c3n2)c(OC)c1: not met
- CC(=O)O[C@H]1C(=O)[C@@]2(C)[C@H]([C@H](OC(=O)c3ccccc3)[C@]3(O)C[C@H](OC(=O)[C@H](O)[C@@H](NC(=O)c4ccccc4)c4ccccc4)C(C)=C1C3(C)C)[C@]1(OC(C)=O)CO[C@@H]1C[C@@H]2O + CN1CCN(c2cc(C(=O)Nc3cc4cc(-c5cnn(C)c5)ccc4cn3)ccn2)CC1: met
- Nc1ccn(C2OC(CO)C(O)C2(F)F)c(=O)n1 (stereo not given) + CNC(=O)c1ccc(Nc2nc(OC3CCCC3)c3c(-c4ccc5nc(C)oc5c4)c[nH]c3n2)c(OC)c1: not met

Note: attention shifts to another entry.
Ask: Does the reported viability, T/C of Nc1ccn(C2OC(CO)C(O)C2(F)F)c(=O)n1 (stereo not given) + CN1CCN(c2cc(C(=O)Nc3cc4cc(-c5cnn(C)c5)ccc4cn3)ccn2)CC1 stay below 50%?
Result: met

---

test system: 874868-142-R-J2-PDC complex spheroids, growth % test/control; assay: Anticancer human tumor 874868-142-R-J2-PDC cell line growth inhibition [CLK]; details: second compound 0.1 µM; first compound 10 µM; stronger effect = lower value;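 further: spheroids exposed to the compounds for 7 days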
I'd appreciate it if you marked entries True when viability, T/C is lower than 10% and False when it is not.

• COC1C=CCC(C)C(C)S(=O)(=O)NC(=O)c2ccc3c(c2)N(CC2CCC21)CC1(CCCc2cc(Cl)ccc21)CO3 (configuration not stated) + CNC(=O)c1ccc(Nc2nc(OC3CCCC3)c3c(-c4ccc5nc(C)oc5c4)c[nH]c3n2)c(OC)c1 = False

Ask: Report whether reported viability, T/C is lower than 10% (strictly) for Nc1ccn(C2OC(CO)C(O)C2(F)F)c(=O)n1 (configuration not stated) + CNC(=O)c1ccc(Nc2nc(OC3CCCC3)c3c(-c4ccc5nc(C)oc5c4)c[nH]c3n2)c(OC)c1
Result: False

Ask: In the record for C=C(F)C(=O)N1CCN(c2nc(OCC3CCCN3C)nc3c2CCN(c2cccc4cccc(Cl)c24)C3)CC1CC#N (configuration not stated) + CN1CCN(c2cc(C(=O)Nc3cc4cc(-c5cnn(C)c5)ccc4cn3)ccn2)CC1 , is viability, T/C less than 10%?
Result: True

Ask: Find out if reported viability, T/C for Nc1ccn(C2OC(CO)C(O)C2(F)F)c(=O)n1 (configuration not stated) + CN1CCN(c2cc(C(=O)Nc3cc4cc(-c5cnn(C)c5)ccc4cn3)ccn2)CC1 is less than 10%
Result: False

Ask: A record lists C=CC(=O)N1CCN(c2nc(=O)n(-c3c(C)ccnc3C(C)C)c3nc(-c4c(O)cccc4F)c(F)cc23)C(C)C1 (configuration not stated) + CN1CCN(c2cc(C(=O)Nc3cc4cc(-c5cnn(C)c5)ccc4cn3)ccn2)CC1 . Is its viability, T/C below 10%?
Result: False

Ask: Lab note: viability, T/C threshold 10%. Does this molecule come in strictly under it? CC(CO)NC(=O)c1cc(-c2ccc(Cl)cc2)nn(-c2cnn(C)c2)c1=O (configuration not stated) + CNC(=O)c1ccc(Nc2nc(OC3CCCC3)c3c(-c4ccc5nc(C)oc5c4)c[nH]c3n2)c(OC)c1
Result: False

Ask: For this molecule, is viability, T/C lower than 10%? CC(Nc1ccc2c(c1)OCCn1cc(N3C(=O)OCC3C(F)F)nc1-2)C(N)=O (configuration not stated) + CN1CCN(c2cc(C(=O)Nc3cc4cc(-c5cnn(C)c5)ccc4cn3)ccn2)CC1
Result: False

Ask: Quick check: viability, T/C of CC1(C)CCC(CN2CCN(c3ccc(C(=O)NS(=O)(=O)c4ccc(NCC5CCOCC5)c([N+](=O)[O-])c4)c(Oc4cnc5[nH]ccc5c4)c3)CC2)=C(c2ccc(Cl)cc2)C1 + CN1CCN(c2cc(C(=O)Nc3cc4cc(-c5cnn(C)c5)ccc4cn3)ccn2)CC1 under 10%?
Result: False

Ask: Hello, is viability, T/C of the following molecule strictly smaller than 10%? O=c1[nH]cc(F)c(=O)[nH]1 + CNC(=O)c1ccc(Nc2nc(OC3CCCC3)c3c(-c4ccc5nc(C)oc5c4)c[nH]c3n2)c(OC)c1
Result: False

Ask: State whether 10% exceeds viability, T/C recorded for C=C(F)C(=O)N1CCN(c2nc(OCC3CCCN3C)nc3c2CCN(c2cccc4cccc(Cl)c24)C3)CC1CC#N (configuration not stated) + CNC(=O)c1ccc(Nc2nc(OC3CCCC3)c3c(-c4ccc5nc(C)oc5c4)c[nH]c3n2)c(OC)c1 .
Result: True

Ask: Is viability, T/C of COc1cccc2c1C(=O)c1c(O)c3c(c(O)c1C2=O)CC(O)(C(=O)CO)CC3OC1CC(N)C(O)C(C)O1 (configuration not stated) + CN1CCN(c2cc(C(=O)Nc3cc4cc(-c5cnn(C)c5)ccc4cn3)ccn2)CC1 strictly below 10%?
Result: True

Ask: Answer whether the molecule O=c1[nH]cc(F)c(=O)[nH]1 + CN1CCN(c2cc(C(=O)Nc3cc4cc(-c5cnn(C)c5)ccc4cn3)ccn2)CC1 has viability, T/C strictly less than 10%
Result: False

Data origin: PubChem BioAssay AID2060601
